Ref: the supplement of paper PMC7877785

assay: self-splicing fitness, log relative to wild type (ln ratio); higher = more splicing; Tetrahymena group I intron in knt gene, E. coli kanamycin selection, DiMSum; sequences stand for … in CUCUCU…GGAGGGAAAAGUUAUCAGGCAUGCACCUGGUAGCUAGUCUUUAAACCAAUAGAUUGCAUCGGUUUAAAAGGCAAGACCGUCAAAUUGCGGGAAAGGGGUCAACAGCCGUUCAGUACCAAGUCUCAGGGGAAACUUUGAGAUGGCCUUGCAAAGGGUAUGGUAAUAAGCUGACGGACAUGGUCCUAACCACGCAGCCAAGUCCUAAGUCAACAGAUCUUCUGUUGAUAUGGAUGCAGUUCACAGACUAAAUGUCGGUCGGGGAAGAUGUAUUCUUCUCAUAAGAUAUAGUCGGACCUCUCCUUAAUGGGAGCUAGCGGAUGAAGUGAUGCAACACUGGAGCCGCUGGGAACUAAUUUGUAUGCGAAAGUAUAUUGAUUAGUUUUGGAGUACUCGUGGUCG; conditions: 30 °C;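 note: selection with 25 µg/mL kanamycin versus none on LB agar overnight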

| sequence.entry | self-splicing fitness (ln) |
| --- | --- |
| GAUUAGCAAUAUUACGAGGU | -3.27 |
| CCUAAGCAAUAUUACGAGAU | -3.2 |
| AUAGAGCAAUAUUACGGGGC | -3.43 |
| GAACAGCAAUAUUACGAAGU | -2.04 |
| ACUCAGCAAUAUUACGCGGC | -3.2 |
| CCGAAGCAAUAUUACGUGCG | -1.04 |
| GGAUAGCAAUAUUACGUUUU | -1.33 |
| GAAUAGCAAUAUUACGGGGA | -2.99 |
| AGUCAGCAAUAUUACGUUCC | -1.13 |
| AAGCAGCAAUAUUACGAUCU | -0.0506 |
| GCUUAGCAAUAUUACGCCCG | -1.04 |
| UAACAGCAAUAUUACGGAGA | -3.27 |
| GAGCAGCAAUAUUACGAGGA | -2.48 |
| CUCGAGCAAUAUUACGGACC | -3.81 |
| UUCUAGCAAUAUUACGUGAC | -3.69 |
| UACAAGCAAUAUUACGUGCC | -2.49 |
| AGCCAGCAAUAUUACGAACG | -3.24 |
| UCAAAGCAAUAUUACGCGUA | -0.554 |
| GACUAGCAAUAUUACGUAGU | -2.84 |
| CAAGAGCAAUAUUACGAAGA | -1.75 |
| GGCCAGCAAUAUUACGAAGA | -3.15 |
| CCCAAGCAAUAUUACGGGGA | -2.82 |
| AACUAGCAAUAUUACGGCAU | -0.42 |
| UGAUAGCAAUAUUACGUUCC | -1.67 |
| CGGUAGCAAUAUUACGAUCU | -0.105 |
| UACCAGCAAUAUUACGAACA | -0.482 |
| GGCAAGCAAUAUUACGUAGU | -1.52 |
| CGGGAGCAAUAUUACGAGCG | -1.78 |
| AUAAAGCAAUAUUACGUACA | -0.00533 |
| UUUUAGCAAUAUUACGCAUU | -2.39 |
| GAUGAGCAAUAUUACGGCGC | -0.349 |
| UACCAGCAAUAUUACGCCCC | -2.68 |
| AAAAAGCAAUAUUACGAUCU | 0.127 |
| AGAAAGCAAUAUUACGGGCC | -1.66 |
